- Test Summary: Oral bioavailability in Sprague-Dawley rat at 5 mg/kg measured after 0.083 to 24 hrs by LC-MS analysis
- Type: ADME, organism-based
- Condition Parameters: in vivo, time 0.083-24 hrs
Endpoint Name: bioavailability (%)
Give the value, in units of %, as a plain number.

Data point: COc1cc(-c2ccc(C#N)cc2)ccc1Oc1cc(N)nc(Nc2ccc(C#N)cc2)n1 ; bioavailability = 7.57

###

- Study Target: UniProt:Q72547
Below: a set of entries, each annotated with reported IC50.
Give the value, in units of nM, as a plain number.

IC50 for UniProt:Q72547 with input Cc1cc(-c2ccccc2C#N)ccc1Oc1cc(N)nc(Nc2ccc(C#N)cc2)n1 equals 50

IC50 for UniProt:Q72547 with input Cc1ccc(-c2cc(C)c(Oc3cc(N)nc(Nc4ccc(C#N)cc4)n3)c(C)c2)cc1 equals 69

IC50 for UniProt:Q72547 with input COc1cc(Oc2cc(N)nc(Nc3ccc(C#N)cc3)n2)ccc1-c1ccc(C#N)cc1 equals 30

IC50 for UniProt:Q72547 with input COc1cc(-c2ccc(C#N)cc2)ccc1Oc1cc(N)nc(Nc2ccc(C#N)cc2)n1 equals 36

IC50 for UniProt:Q72547 with input Cc1cc(-c2ccc(C#N)c(C#N)c2)cc(C)c1Oc1cc(N)nc(Nc2ccc(C#N)cc2)n1 equals 40

###

- Tested on: Human immunodeficiency virus 1
- Test Summary: microbe, parasite or virus in culture
- Condition Parameters: Human immunodeficiency virus 1, IIIB, MT4
- Description: Antiviral activity against wild type HIV-1 IIIB infected in human MT4 cells assessed as protection against virus-induced cytopathic effect by MTT assay
Endpoint Name: EC50 (nM)
Give the value, in units of nM, as a plain number.

Record excerpt, results attached:
Substance Smiles	EC50 [nM]
Cc1cc(-c2ccc(C#N)c(F)c2)ccc1Oc1cc(N)nc(Nc2ccc(C#N)cc2)n1	6
Cc1cc(-c2ccccc2Cl)cc(C)c1Oc1cc(N)nc(Nc2ccc(C#N)cc2)n1	28.4
Cc1cc(-c2ccc(C#N)c(C#N)c2)cc(C)c1Oc1cc(N)nc(Nc2ccc(C#N)cc2)n1	5.69
Cc1cc(-c2ccc(Cl)cc2)cc(C)c1Oc1cc(N)nc(Nc2ccc(C#N)cc2)n1	34.2

Data point: COc1cc2cc(C#N)ccc2c(OC)c1Oc1cc(N)nc(Nc2ccc(C#N)cc2)n1 ; EC50 = 5

Data point: COc1ccc(-c2cc(C)c(Oc3cc(N)nc(Nc4ccc(C#N)cc4)n3)c(C)c2)cc1 ; EC50 = 7.7

###

- Test Summary: Metabolic stability in human liver assessed as intrinsic clearance in microsomes at 1 uM measured up to 45 mins in presence of NADPH by LC-MS/MS analysis
- Type: ADME
- Condition Parameters: read-out: CLH
Below: a set of entries, each annotated with reported microsomal CLint at 1 µM.
Give the value, in units of µL/min/mg, as a plain number.

Molecule	Endpoint Name	Unit Label	Val
Cc1cc(Oc2cc(N)nc(Nc3ccc(C#N)cc3)n2)ccc1-c1ccc(C#N)cc1	microsomal CLint at 1 µM	µL/min/mg	36

Data point: O=C(O)Cc1ccccc1Nc1c(Cl)cccc1Cl [DICLOFENAC] ; microsomal CLint at 1 µM = 150

###

- Test Summary: AUC (0 to infinity) in Sprague-Dawley rat at 1 mg/kg, iv measured after 0.083 to 24 hrs by LC-MS analysis
- Type: ADME, organism-based
- Parameters: dose 1 mg/kg, time 0.083-24 hrs, route iv
- Condition Parameters: in vivo
Endpoint Name: AUC(0-inf)
# output: number + unit

Data point: COc1cc(-c2ccc(C#N)cc2)ccc1Oc1cc(N)nc(Nc2ccc(C#N)cc2)n1 ; AUC(0-inf) = 329 ng·h/mL

###

- Test Summary: in vitro
- Condition Parameters: human
Endpoint Name: CLint scaled at 0.75 h, 1 µM (mL/min/kg)
Give the value, in units of mL/min/kg, as a plain number.

Data point: O=C(O)Cc1ccccc1Nc1c(Cl)cccc1Cl [DICLOFENAC] ; CLint scaled at 0.75 h, 1 µM = 4.49

###

- Test Summary: in vitro
- Condition Parameters: human, liver microsomes
Endpoint Name: half-life at 0.75 h, 1 µM

Data point: Cc1cc(Oc2cc(N)nc(Nc3ccc(C#N)cc3)n2)ccc1-c1ccc(C#N)cc1 ; half-life at 0.75 h, 1 µM = 38.5 min

###

- Test Summary: Cytotoxicity against human MT4 cells assessed as reduction in cell viability by MTT assay
- Type: toxicity, cell-based
Endpoint Name: CC50

Substance Smiles	Endpoint Name	Val
Cc1cc(-c2ccccc2C#N)cc(C)c1Oc1cc(N)nc(Nc2ccc(C#N)cc2)n1	CC50	25.4 µM
Cc1cc(-c2cccc(F)c2)ccc1Oc1cc(N)nc(Nc2ccc(C#N)cc2)n1	CC50	11.3 µM
Cc1cc(-c2ccc(C#N)c(F)c2)ccc1Oc1cc(N)nc(Nc2ccc(C#N)cc2)n1	CC50	6.6 µM
COc1cc(-c2ccc(C#N)cc2)ccc1Oc1cc(N)nc(Nc2ccc(C#N)cc2)n1	CC50	120 µM
COc1cccc(-c2cc(C)c(Oc3cc(N)nc(Nc4ccc(C#N)cc4)n3)c(C)c2)c1	CC50	19.3 µM
Cc1cc(-c2ccc(C#N)c(C#N)c2)cc(C)c1Oc1cc(N)nc(Nc2ccc(C#N)cc2)n1	CC50	17.6 µM
Cc1cc(C#N)cc(C)c1Oc1nc(Nc2ccc(C#N)cc2)nc(N)c1Br	CC50	> 4.6 µM
COc1ccccc1-c1cc(C)c(Oc2cc(N)nc(Nc3ccc(C#N)cc3)n2)c(C)c1	CC50	21.8 µM
Cc1cc(-c2cccc(Cl)c2)cc(C)c1Oc1cc(N)nc(Nc2ccc(C#N)cc2)n1	CC50	22.3 µM
Cc1cc(-c2ccccc2F)ccc1Oc1cc(N)nc(Nc2ccc(C#N)cc2)n1	CC50	29.5 µM

Here is the next item to consider.
Data point: Cc1cc(-c2cccc(C#N)c2)cc(C)c1Oc1cc(N)nc(Nc2ccc(C#N)cc2)n1 ; CC50 = 20.2 µM

###

- Study Target: hERG (KCNH2) (Homo sapiens)
- Sequence (Q12809 whole entry): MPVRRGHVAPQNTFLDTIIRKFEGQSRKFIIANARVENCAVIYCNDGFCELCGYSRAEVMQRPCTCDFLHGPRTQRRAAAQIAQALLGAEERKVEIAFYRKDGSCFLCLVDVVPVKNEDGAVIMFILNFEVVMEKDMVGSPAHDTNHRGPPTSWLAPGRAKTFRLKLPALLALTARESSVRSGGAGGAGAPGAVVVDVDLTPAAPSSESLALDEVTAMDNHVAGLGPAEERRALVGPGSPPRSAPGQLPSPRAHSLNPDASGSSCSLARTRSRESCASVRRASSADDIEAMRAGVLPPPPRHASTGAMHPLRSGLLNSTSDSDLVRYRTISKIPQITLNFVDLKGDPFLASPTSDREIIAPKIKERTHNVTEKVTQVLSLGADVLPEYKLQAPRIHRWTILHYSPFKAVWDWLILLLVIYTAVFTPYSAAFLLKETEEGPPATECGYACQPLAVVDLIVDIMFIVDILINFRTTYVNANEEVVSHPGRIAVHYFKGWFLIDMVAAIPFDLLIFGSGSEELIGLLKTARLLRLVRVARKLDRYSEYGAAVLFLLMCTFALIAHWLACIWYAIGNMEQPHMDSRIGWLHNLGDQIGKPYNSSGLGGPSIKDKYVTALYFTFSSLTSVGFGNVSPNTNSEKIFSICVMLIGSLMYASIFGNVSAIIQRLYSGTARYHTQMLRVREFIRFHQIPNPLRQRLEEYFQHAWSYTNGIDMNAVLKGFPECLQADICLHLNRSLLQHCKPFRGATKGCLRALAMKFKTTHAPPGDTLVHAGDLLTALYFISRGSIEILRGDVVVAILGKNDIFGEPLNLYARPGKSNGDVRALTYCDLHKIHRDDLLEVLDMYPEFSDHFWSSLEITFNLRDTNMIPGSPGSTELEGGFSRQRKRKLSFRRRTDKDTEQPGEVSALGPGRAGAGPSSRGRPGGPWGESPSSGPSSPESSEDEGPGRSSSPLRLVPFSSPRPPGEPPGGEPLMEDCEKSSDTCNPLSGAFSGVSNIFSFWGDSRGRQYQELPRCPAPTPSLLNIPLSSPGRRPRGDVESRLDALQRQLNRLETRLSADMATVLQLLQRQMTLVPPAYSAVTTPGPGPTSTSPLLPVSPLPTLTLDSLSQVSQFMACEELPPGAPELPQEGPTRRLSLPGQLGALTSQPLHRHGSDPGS
- Test Summary: Inhibition of human ERG potassium channel transfected in CHO cells at 40 uM by automated patch clamp assay
- Format: toxicity, cell-based
- Condition Parameters: CHO cells transfected with hERG
Endpoint Name: inhibition at 40 µM (%)
Give the value, in units of %, as a plain number.

inhibition at 40 µM for hERG (KCNH2) (Homo sapiens) with input COc1cc(-c2ccc(C#N)cc2)ccc1Oc1cc(N)nc(Nc2ccc(C#N)cc2)n1 equals 35.9

###

- System: Human immunodeficiency virus 1
- Test Summary: Antiviral activity against HIV-1 IIIB harboring reverse transcriptase K103N mutant infected in human MT4 cells by MTT assay
- Assay type: functional, organism-based
- Condition Parameters: Human immunodeficiency virus 1, IIIB
Endpoint Name: pEC50
In simple prose, pEC50 is minus the logarithm base ten of a concentration in moles per litre.

Substance Smiles	pEC50
Cc1cc(Oc2cc(N)nc(Nc3ccc(C#N)cc3)n2)ccc1-c1ccc(C#N)cc1	8.00
COc1cc(Oc2cc(N)nc(Nc3ccc(C#N)cc3)n2)ccc1-c1ccc(C#N)cc1	7.92

Data point: Cc1cc(-c2cccc(C#N)c2)ccc1Oc1cc(N)nc(Nc2ccc(C#N)cc2)n1 ; pEC50 = 6.98

Data point: Cc1cc(C#N)cc(C)c1Oc1nc(Nc2ccc(C#N)cc2)nc(N)c1Br ; pEC50 = 8.70

###

- Study Target: Cytochrome P450 2D6 (Homo sapiens)
- Sequence (P10635 whole entry): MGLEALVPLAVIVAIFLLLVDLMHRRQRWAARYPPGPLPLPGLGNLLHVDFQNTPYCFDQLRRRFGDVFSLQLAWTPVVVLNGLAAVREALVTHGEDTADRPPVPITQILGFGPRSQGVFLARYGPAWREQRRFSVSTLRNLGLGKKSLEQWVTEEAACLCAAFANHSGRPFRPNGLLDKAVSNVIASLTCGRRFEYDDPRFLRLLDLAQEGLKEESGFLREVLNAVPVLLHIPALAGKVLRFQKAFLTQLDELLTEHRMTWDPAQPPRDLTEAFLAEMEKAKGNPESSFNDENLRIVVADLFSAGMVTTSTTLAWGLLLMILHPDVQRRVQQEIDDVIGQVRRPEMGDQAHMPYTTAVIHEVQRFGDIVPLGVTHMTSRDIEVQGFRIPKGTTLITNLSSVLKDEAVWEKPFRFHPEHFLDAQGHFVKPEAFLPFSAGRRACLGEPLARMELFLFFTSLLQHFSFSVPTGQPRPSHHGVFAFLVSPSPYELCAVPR
Endpoint Name: IC50

Data point: COc1cc(-c2ccc(C#N)cc2)ccc1Oc1cc(N)nc(Nc2ccc(C#N)cc2)n1 ; IC50 = > 50 µM

###

- System: Human immunodeficiency virus 1
- Test Summary: Antiviral activity against HIV-1 IIIB harboring reverse transcriptase Y181C mutant infected in human MT4 cells by MTT assay
- Type: functional, organism-based
- Condition Parameters: Human immunodeficiency virus 1, IIIB
EC50 less than 30 nM is criterion met; EC50 greater than or equal to 30 nM is criterion not met.

Substance Smiles	Category
COc1cc(-c2ccc(C#N)cc2)ccc1Oc1cc(N)nc(Nc2ccc(C#N)cc2)n1	criterion met
Cc1cc(Oc2cc(N)nc(Nc3ccc(C#N)cc3)n2)ccc1-c1ccc(C#N)cc1	criterion not met
Cc1cc(-c2ccc(C#N)cc2)cc(C)c1Oc1cc(N)nc(Nc2ccc(C#N)cc2)n1	criterion met
COc1cc(Oc2cc(N)nc(Nc3ccc(C#N)cc3)n2)ccc1-c1ccc(C#N)cc1	criterion met
Cc1cc(-c2ccc(C#N)cc2)ccc1Oc1cc(N)nc(Nc2ccc(C#N)cc2)n1	criterion not met

INPUT: Decide: EC50 of Cc1cc(-c2cccc(C#N)c2)ccc1Oc1cc(N)nc(Nc2ccc(C#N)cc2)n1 strictly below 30 nM?
OUTPUT: criterion not met

INPUT: Decide: EC50 of Cc1cc(-c2cccc(C#N)c2)cc(C)c1Oc1cc(N)nc(Nc2ccc(C#N)cc2)n1 strictly below 30 nM?
OUTPUT: criterion not met

INPUT: Decide: EC50 of O=C1Nc2ccc(Cl)cc2[C@@](C#CC2CC2)(C(F)(F)F)O1 strictly below 30 nM?
OUTPUT: criterion met

INPUT: Decide: EC50 of Cc1ccnc2c1NC(=O)c1cccnc1N2C1CC1 strictly below 30 nM?
OUTPUT: criterion not met
